Measured values drawn from patent US20100292165A1 for this set.

# target-entity: γ-secretase
# protocol: IC50 of γ-secretase inhibitors, assay not stated
recorded-endpoint: pIC50
Scale note: pIC50 = -log10(concentration in M).

What does the data say about its pIC50? Entry: CC(NC(=O)Cc1cc(F)cc(F)c1)C(=O)NC(C(=O)OC(C)(C)C)c1ccccc1 (stereo not shown)
8.00
